Data origin: patent US8241647B2

assay: Concentration of Compound 3 in rat plasma after i.v. liposome (LC/MS/MS); type: in vivo, SD rat; conditions: male, Sprague-Dawley, rat, plasma, iv, 40 mg/kg, SD rat, i.v. BSA-encapsulated pH-responsive liposome ([Lipid]=20 mg/mL, 2 ml/kg); 5 min; animal 2; read-out: GGLG concentration in plasma
experimentalEndpoint: concentration at 5 min (µg/mL)
Form entry: value (µg/mL) — number only.

Sample CCCCCCCCCCCCCCCCOC(=O)CCC(NC(=O)C(CCCCNC(=O)C(N)CCC(=O)O)NC(=O)C(N)CCC(=O)O)C(=O)OCCCCCCCCCCCCCCCC (stereo not shown) ; concentration at 5 min observed: 153

====

test: Concentration of Compound 3 in rat plasma after i.v. liposome (LC/MS/MS); format: in vivo, SD rat; conditions: male, Sprague-Dawley, rat, plasma, iv, 40 mg/kg, SD rat, i.v. BSA-encapsulated pH-responsive liposome ([Lipid]=20 mg/mL, 2 ml/kg); 1 hr; animal 2; read-out: GGLG concentration in plasma
experimentalEndpoint: concentration at 1 h (µg/mL)
Field: numeric (µg/mL). Do not append units.

For reference, reported concentration at 1 h for CCCCCCCCCCCCCCCCOC(=O)CCC(NC(=O)C(CCCCNC(=O)C(N)CCC(=O)O)NC(=O)C(N)CCC(=O)O)C(=O)OCCCCCCCCCCCCCCCC (stereo not shown) stands at 62.4

====

assay: Concentration of Compound 3 in rat plasma after i.v. liposome (LC/MS/MS); assay type: in vivo, SD rat; conditions: male, Sprague-Dawley, rat, plasma, iv, 40 mg/kg, SD rat, i.v. BSA-encapsulated pH-responsive liposome ([Lipid]=20 mg/mL, 2 ml/kg); 6 hr; animal 1; read-out: GGLG concentration in plasma
experimentalEndpoint: concentration at 6 h (ng/mL)
Your answer should be a plain number; it is taken to be in ng/mL.

Documented concentration at 6 h of CCCCCCCCCCCCCCCCOC(=O)CCC(NC(=O)C(CCCCNC(=O)C(N)CCC(=O)O)NC(=O)C(N)CCC(=O)O)C(=O)OCCCCCCCCCCCCCCCC (stereo not shown) [Compound 3] : 8390

====

test: Concentration of Compound 3 in rat plasma after i.v. liposome (LC/MS/MS); assay type: in vivo, SD rat; conditions: male, Sprague-Dawley, rat, plasma, iv, 40 mg/kg, SD rat, i.v. BSA-encapsulated pH-responsive liposome ([Lipid]=20 mg/mL, 2 ml/kg); 24 hr; Average value (N=3); read-out: GGLG concentration in plasma
experimentalEndpoint: concentration at 24 h (ng/mL)
Give your result in ng/mL as a bare value.

CCCCCCCCCCCCCCCCOC(=O)CCC(NC(=O)C(CCCCNC(=O)C(N)CCC(=O)O)NC(=O)C(N)CCC(=O)O)C(=O)OCCCCCCCCCCCCCCCC (stereo not shown) has a reported concentration at 24 h of 1130

====

experiment: Concentration of Compound 3 in rat plasma after i.v. liposome (LC/MS/MS); type: in vivo, SD rat; settings: male, Sprague-Dawley, rat, plasma, iv, 40 mg/kg, SD rat, i.v. BSA-encapsulated pH-responsive liposome ([Lipid]=20 mg/mL, 2 ml/kg); 2 hr; animal 3; read-out: GGLG concentration in plasma
experimentalEndpoint: concentration at 2 h
Write the quantity with the unit trailing the number.

Record CCCCCCCCCCCCCCCCOC(=O)CCC(NC(=O)C(CCCCNC(=O)C(N)CCC(=O)O)NC(=O)C(N)CCC(=O)O)C(=O)OCCCCCCCCCCCCCCCC (stereo not shown) [Compound 3] , field concentration at 2 h: 28500 ng/mL
